From: patent US10125101B2

- tested_system: human GPR40 receptor (Homo sapiens (Human), UniProt O14842)
- Sequence (O14842 whole entry): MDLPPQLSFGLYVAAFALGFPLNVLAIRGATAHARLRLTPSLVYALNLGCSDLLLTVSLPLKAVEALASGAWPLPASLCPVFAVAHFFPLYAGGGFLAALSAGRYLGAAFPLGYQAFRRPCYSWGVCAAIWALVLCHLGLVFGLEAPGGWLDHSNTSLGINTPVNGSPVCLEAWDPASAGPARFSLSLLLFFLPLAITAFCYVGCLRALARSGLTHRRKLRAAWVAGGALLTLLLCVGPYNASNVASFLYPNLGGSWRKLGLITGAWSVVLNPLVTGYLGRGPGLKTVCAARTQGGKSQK
- method_summary: IP1 accumulation measurements using the IPOne assay system
- Format: cell-based
- experimental_setup: 1321N1 cells stably expressing human GPR40, 1 h stimulation; read-out: EC50
Listing of recorded EC50 by entry.
measure: EC50 (nM)

* COc1cc(-c2cc(C)c(-c3ccc(F)c4c3CC[C@H]4Nc3ccc([C@H]4C[C@@H]4C(=O)O)nc3)c(C)c2)ccn1 | 5
* Cc1cc(O[C@H]2CCOC2)cc(C)c1-c1ccc(F)c2c1CC[C@H]2Nc1ccc([C@H]2C[C@@H]2C(=O)O)nc1 (mixture of isomers) | 12
* Cc1cc(OCC2CCOCC2)cc(C)c1-c1ccc(F)c2c1CC[C@H]2Nc1ccc([C@H]2C[C@@H]2C(=O)O)nc1 | 6

====

Listing of recorded pEC50 by entry.
- tested_system: human GPR40 receptor (Homo sapiens (Human), UniProt O14842)
- method_summary: IP1 accumulation measurements using the IPOne assay system
- Type: cell-based
- experimental_setup: head-to-head compilation; given as IC50, values equal the EC50 of Table 2; read-out: GPR40: IC50
pEC50: −log10 of the molar value.
measure: pEC50

• Cc1cc(OCCC(C)(C)O)cc(C)c1-c1ccc(F)c2c1CC[C@H]2Nc1ccc([C@H]2C[C@@H]2C(=O)O)nc1 [Example 2] = 8.40
• Cc1cc(-c2nnn(C)n2)cc(C)c1-c1ccc(F)c2c1CC[C@H]2Oc1ccc([C@H]2C[C@@H]2C(=O)O)cc1 [Example 45 in WO 2013/178575, reference compound] = 8.10
• Cc1cc(OCCC(C)(C)O)cc(C)c1-c1ccc(F)c2c1CC[C@H]2Oc1ccc([C@H]2C[C@@H]2C(=O)O)cc1 [Example 17 in WO 2013/178575, reference compound] = 8.40
• Cc1cc(OCCCS(C)(=O)=O)cc(C)c1-c1ccc(F)c2c1CC[C@H]2Oc1ccc([C@H]2C[C@@H]2C(=O)O)nc1 [Example 11 in WO 2013/178575, reference compound] = 8.10
• Cc1cc(OCCCS(C)(=O)=O)cc(C)c1-c1ccc(F)c2c1CC[C@H]2Nc1ccc([C@H]2C[C@@H]2C(=O)O)nc1 [Example 4] = 8.15

====

Listing of recorded pIC50 by entry.
- tested_system: UniProtKB P10632
- Sequence (P10632 whole entry): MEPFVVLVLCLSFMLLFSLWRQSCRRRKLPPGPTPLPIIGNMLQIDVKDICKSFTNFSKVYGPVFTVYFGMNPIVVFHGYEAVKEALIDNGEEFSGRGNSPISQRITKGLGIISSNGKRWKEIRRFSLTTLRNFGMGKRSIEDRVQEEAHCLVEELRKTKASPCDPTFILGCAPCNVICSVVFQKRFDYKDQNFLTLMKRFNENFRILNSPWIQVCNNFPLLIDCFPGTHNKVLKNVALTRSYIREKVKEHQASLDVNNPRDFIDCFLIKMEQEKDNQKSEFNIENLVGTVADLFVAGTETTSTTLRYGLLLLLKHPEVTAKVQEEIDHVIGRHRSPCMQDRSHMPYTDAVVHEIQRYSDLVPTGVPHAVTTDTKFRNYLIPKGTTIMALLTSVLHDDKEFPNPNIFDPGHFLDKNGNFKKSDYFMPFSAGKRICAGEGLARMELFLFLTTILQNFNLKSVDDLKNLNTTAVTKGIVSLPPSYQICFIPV
- method_summary: Inhibition of CYP-2C8 (amodiaquine deethylation, human liver microsomes)
- Assay type: in vitro ADME
- experimental_setup: amodiaquine 1 μM, 37° C.
pIC50: −log10 of the molar value.
measure: pIC50

• Cc1cc(-c2nnn(CC(C)(C)O)n2)cc(C)c1-c1ccc(F)c2c1CC[C@H]2Nc1ccc([C@H]2C[C@@H]2C(=O)O)nc1 = 4.47
• Cc1cc(OC2CCOCC2)cc(C)c1-c1ccc(F)c2c1CC[C@H]2Nc1ccc([C@H]2C[C@@H]2C(=O)O)nc1 = 4.51
• Cc1cc(OCC2CCOCC2)cc(C)c1-c1ccc(F)c2c1CC[C@H]2Nc1ccc([C@H]2C[C@@H]2C(=O)O)nc1 = 4.85
• Cc1cc(OCC2CCOC2)cc(C)c1-c1ccc(F)c2c1CC[C@H]2Nc1ccc([C@H]2C[C@@H]2C(=O)O)nc1 (stereo partly shown) = 4.59
• Cc1cc(-c2ccnn2C)cc(C)c1-c1ccc(F)c2c1CC[C@H]2Nc1ccc([C@H]2C[C@@H]2C(=O)O)nc1 = 5.15
• N#CC1(c2ccccc2-c2ccc(F)c3c2CC[C@H]3Nc2ccc([C@H]3C[C@@H]3C(=O)O)nc2)CC1 (mixture of isomers) = 4.31
• Cc1cc(C(=O)O)cc(C)c1-c1ccc(F)c2c1CC[C@H]2Nc1ccc([C@H]2C[C@@H]2C(=O)O)nc1 = 4.37
• Cc1cnc(-c2cc(C)c(-c3ccc(F)c4c3CC[C@H]4Nc3ccc([C@H]4C[C@@H]4C(=O)O)nc3)c(C)c2)nc1 = 4.82
• Cc1c(C#N)cccc1-c1ccc(F)c2c1CC[C@H]2Oc1ccc([C@H]2C[C@@H]2C(=O)O)cc1 [Example 54 in WO 2013/178575, reference compound] = 5.05
• Cc1cc(OCC(C)(C)C#N)cc(C)c1-c1ccc(F)c2c1CC[C@H]2Nc1ccc([C@H]2C[C@@H]2C(=O)O)nc1 = 4.72
• COc1cnc(-c2ccc(-c3cccc4c3CC[C@H]4Nc3ccc([C@H]4C[C@@H]4C(=O)O)nc3)cc2)cn1 = 4.70
• Cc1cc(-c2nnn(C)n2)cc(C)c1-c1ccc(F)c2c1CC[C@H]2Oc1ccc([C@H]2C[C@@H]2C(=O)O)cc1 [Example 45 in WO 2013/178575, reference compound] = 5.30
• Cc1cc(OCCCS(C)(=O)=O)cc(C)c1-c1ccc(F)c2c1CC[C@H]2Oc1ccc([C@H]2C[C@@H]2C(=O)O)nc1 [Example 11 in WO 2013/178575, reference compound] = 4.92
• Cc1cc(-c2ccn(C)c(=O)n2)cc(C)c1-c1ccc(F)c2c1CC[C@H]2Nc1ccc([C@H]2C[C@@H]2C(=O)O)nc1 = 4.68
• COc1cc(-c2cc(C)c(-c3ccc(F)c4c3CC[C@H]4Nc3ccc([C@H]4C[C@@H]4C(=O)O)nc3)c(C)c2)ccn1 = 5.10
• Cc1cc(OCC2(O)CCOCC2)cc(C)c1-c1ccc(F)c2c1CC[C@H]2Nc1ccc([C@H]2C[C@@H]2C(=O)O)nc1 = 4.39
• Cc1cc(C(=O)NCC(C)(C)O)cc(C)c1-c1ccc(F)c2c1CC[C@H]2Oc1ccc([C@H]2C[C@@H]2C(=O)O)cc1 [Example 15 in WO 2013/178575, reference compound] = 5.00
• Cc1cccc(C)c1-c1ccc(F)c2c1CC[C@H]2Oc1ccc(C2CC2C(=O)O)cc1 (stereo partly shown) [Example 33 in WO 2013/178575, reference compound] = 5.30
• Cc1cc(OCCC(C)(C)O)cc(C)c1-c1ccc(F)c2c1CC[C@H]2Oc1ccc([C@H]2C[C@@H]2C(=O)O)cc1 [Example 17 in WO 2013/178575, reference compound] = 5.22
